Tested on: human serum protein
Assay: Non-specific adsorption of low-pI TM2 to human serum protein-immobilized magnetic beads
Format: binding
Conditions: FIG. 1
Method: In this embodiment, non-specific binding to human serum was investigated as non-specific adsorption of low-pI TM2 to serum protein-immobilized magnetic beads. Specifically, in order to investigate the non-specific binding of low-pI TM2, the amount of low-pI TM2 adsorbed to magnetic beads to which human serum protein was covalently bonded was measured. […]
recorded metric: decrease of adsorption to human serum protein compared to the wild type TM2 (%)
Give your result in % as a bare value.

Req: I am curious: what decrease of adsorption to human serum protein compared to the wild type TM2 value has been reported for TM2 R104EK141E: TM2 mutant, arginine 104 and lysine 141 each replaced with glutamic acid; SEQ ID NO: 16 (protein, Synthetic TM2 R104EK141E) MSDVQSSLTGTWYNELNSKMELTANKDGTLTGKYLSKVGDVYVPYPLSGRYNLQPPAGQGVALGWAVSWENSKIHSATTWSGQFFSESSPVILTQWLLSSSTAEGDVWESTLVGNDSFTKTAPTEQQIAHAQLHCRAPRLE ?
Resp: 70

Req: Consider next the molecule TM2 K141E: TM2 mutant in which lysine at position 141 was replaced with glutamic acid; SEQ ID NO: 10 (protein, Synthetic TM2 K141E) MSDVQSSLTGTWYNELNSKMELTANKDGTLTGKYLSKVGDVYVPYPLSGRYNLQPPAGQGVALGWAVSWENSKIHSATTWSGQFFSESSPVILTQWLLSSSTARGDVWESTLVGNDSFTKTAPTEQQIAHAQLHCRAPRLE in the same way.
Resp: 40

Req: Param item: TM2 R104E: TM2 mutant in which arginine at position 104 was replaced with glutamic acid; SEQ ID NO: 8 (protein, Synthetic TM2 R104E) MSDVQSSLTGTWYNELNSKMELTANKDGTLTGKYLSKVGDVYVPYPLSGRYNLQPPAGQGVALGWAVSWENSKIHSATTWSGQFFSESSPVILTQWLLSSSTAEGDVWESTLVGNDSFTKTAPTEQQIAHAQLHCRAPRLK
Resp: 10
